Target: TNKS2 (Homo sapiens, UniProt Q9H2K2)
Sequence (Q9H2K2 whole entry): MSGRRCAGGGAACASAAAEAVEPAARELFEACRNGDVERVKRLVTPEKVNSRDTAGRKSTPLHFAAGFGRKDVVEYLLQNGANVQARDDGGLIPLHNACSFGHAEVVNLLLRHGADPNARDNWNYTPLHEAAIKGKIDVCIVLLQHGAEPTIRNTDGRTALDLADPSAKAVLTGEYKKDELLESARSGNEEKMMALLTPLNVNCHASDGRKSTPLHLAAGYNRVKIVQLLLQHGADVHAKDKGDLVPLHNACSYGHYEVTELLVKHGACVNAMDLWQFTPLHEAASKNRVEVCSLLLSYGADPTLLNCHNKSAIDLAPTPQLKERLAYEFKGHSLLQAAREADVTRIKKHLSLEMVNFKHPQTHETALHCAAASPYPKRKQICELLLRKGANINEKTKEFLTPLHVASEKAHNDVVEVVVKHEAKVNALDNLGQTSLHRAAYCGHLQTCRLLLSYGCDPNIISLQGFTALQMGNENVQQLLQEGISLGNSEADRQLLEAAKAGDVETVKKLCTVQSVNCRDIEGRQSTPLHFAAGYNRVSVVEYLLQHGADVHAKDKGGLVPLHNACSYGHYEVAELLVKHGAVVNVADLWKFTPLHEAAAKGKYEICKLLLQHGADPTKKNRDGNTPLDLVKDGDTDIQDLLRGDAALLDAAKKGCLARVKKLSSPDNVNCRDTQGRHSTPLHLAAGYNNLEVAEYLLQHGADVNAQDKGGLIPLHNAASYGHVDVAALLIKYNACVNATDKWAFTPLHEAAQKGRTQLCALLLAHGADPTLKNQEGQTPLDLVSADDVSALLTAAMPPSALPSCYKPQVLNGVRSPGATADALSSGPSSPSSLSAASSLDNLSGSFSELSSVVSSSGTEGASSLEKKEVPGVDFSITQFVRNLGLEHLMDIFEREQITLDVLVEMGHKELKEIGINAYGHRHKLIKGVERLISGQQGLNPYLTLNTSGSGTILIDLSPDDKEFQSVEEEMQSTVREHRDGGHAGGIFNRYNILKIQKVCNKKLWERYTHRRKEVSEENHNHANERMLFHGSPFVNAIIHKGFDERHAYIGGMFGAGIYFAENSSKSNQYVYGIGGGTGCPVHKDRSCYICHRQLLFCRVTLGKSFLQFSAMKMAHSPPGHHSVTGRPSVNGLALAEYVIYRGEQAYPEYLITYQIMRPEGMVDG
Test: Modified TNKS2 Assay 2 (auto-parsylation, [3H]-NAD+ SPA)
Format: biochemical
Conditions: 6 nM TNKS2, 96 well
Protocol: The potency of selected compounds according to the invention was assessed applying an modified in vitro inhibition assay. Here, the TNKS2 catalyzed NAD^+-dependent ribosylation of the enzyme itself (auto-parsylation) was detected using [^3H]-NAD^+ as substrate and applying the scintillation proximity assay (SPA) method to detect tritium-labeled, parsylated TNKS2. The intensity of the readout signal is proportional to the incorporated [^3H]-NAD^+. […]
Kindly note that classification relies on IC50 with these boundaries: low-valued: < 100 nM; mid-valued: ≥ 100 nM and < 1000 nM; high-valued: ≥ 1000 nM

IN: Would you mind sorting CNC(=O)c1nc[nH]c1C(=O)Nc1ccc(NC(=O)c2cc(C)ccn2)cc1 [Example 363] into the appropriate category?
OUT: high-valued

IN: Would you mind sorting CNC(=O)c1nc[nH]c1C(=O)Nc1ccc(NC(=O)c2cc(OCCN3CCN(C)CC3)ccc2Cl)cc1 [Example 124] into the appropriate category?
OUT: high-valued

IN: Would you mind sorting CNC(=O)c1nc[nH]c1C(=O)Nc1ccc(NC(=O)c2ccccc2OC(F)(F)F)cc1 [Example 243] into the appropriate category?
OUT: high-valued

IN: Would you mind sorting CNC(=O)c1nc[nH]c1C(=O)Nc1ccc(NC(=O)c2ccc(O)cc2Cl)cc1 [Example 122] into the appropriate category?
OUT: mid-valued

IN: Would you mind sorting CNC(=O)c1nc[nH]c1C(=O)Nc1ccc(NC(=O)c2ccc(F)c(Cl)c2F)cc1 [Example 359] into the appropriate category?
OUT: high-valued

IN: Would you mind sorting O=C(Nc1ccc(NC(=O)c2[nH]cnc2C(=O)NCCN2CCCCC2)cc1)c1ccc(F)cc1I [Example 62] into the appropriate category?
OUT: mid-valued

IN: Would you mind sorting O=C(Nc1ccc(NC(=O)c2[nH]cnc2C(=O)N2CCOCC2)cc1)c1ccc(F)cc1Cl [Example 29] into the appropriate category?
OUT: high-valued

IN: Would you mind sorting CN(C)CCNC(=O)c1[nH]cnc1C(=O)Nc1ccc(NC(=O)c2ccc(F)cc2Br)cc1 [Example 217] into the appropriate category?
OUT: low-valued

IN: Would you mind sorting CC1(C)CC(NC(=O)c2nc[nH]c2C(=O)Nc2ccc(NC(=O)c3ccc(F)cc3Cl)cc2)CCO1 (stereo not shown) [Example 391] into the appropriate category?
OUT: mid-valued

IN: Would you mind sorting Cc1cc(NC(=O)c2[nH]cnc2C(=O)NCCN2CCCCC2)ccc1NC(=O)c1ccccc1Cl [Example 89] into the appropriate category?
OUT: low-valued

IN: Would you mind sorting CNC(=O)c1nc[nH]c1C(=O)Nc1ccc(NC(=O)c2ccccc2)cc1 [Example 21] into the appropriate category?
OUT: high-valued

IN: Would you mind sorting NC(=O)c1nc[nH]c1C(=O)Nc1ccc(NC(=O)c2ccc(F)cc2Cl)cc1 [Example 121] into the appropriate category?
OUT: low-valued

IN: Would you mind sorting CCNC(=O)c1nc[nH]c1C(=O)Nc1ccc(NC(=O)c2ccc(OCC)cc2Cl)cc1 [Example 259] into the appropriate category?
OUT: high-valued

IN: Would you mind sorting CNC(=O)c1nc[nH]c1C(=O)Nc1ccc(NC(=O)c2c(C)cccc2Cl)cc1 [Example 343] into the appropriate category?
OUT: high-valued

IN: Would you mind sorting CNC(=O)c1nc[nH]c1C(=O)Nc1ccc(NC(=O)c2cccc(F)c2OC)cc1 [Example 367] into the appropriate category?
OUT: high-valued

IN: Would you mind sorting CNC(=O)c1nc[nH]c1C(=O)Nc1ccc(NC(=O)c2c(F)ccc(F)c2Cl)cc1 [Example 374] into the appropriate category?
OUT: high-valued

IN: Would you mind sorting CNC(=O)c1nc[nH]c1C(=O)Nc1ccc(NC(=O)c2ccccc2S(C)(=O)=O)cc1 [Example 249] into the appropriate category?
OUT: high-valued

IN: Would you mind sorting O=C(Nc1ccc(NC(=O)c2nc[nH]c2C(=O)NC2CCOC2)cc1)c1ccc(F)cc1Cl (stereo not shown) [Example 236] into the appropriate category?
OUT: low-valued

IN: Would you mind sorting CC(C)CNC(=O)c1[nH]cnc1C(=O)Nc1ccc(NC(=O)c2ccc(F)cc2Cl)cc1 [Example 147] into the appropriate category?
OUT: mid-valued

###

Target: TNKS2 (Homo sapiens, UniProt Q9H2K2)
Test: Modified TNKS2 Assay 3 (BPS kit #80578, biotin-NAD+, 96 well)
Format: biochemical
Conditions: human TNKS2, BPS kit #80578, 96 well
Where a name gives a salt, the structure may show the parent alone.
Provide the recorded log10(IC50) for the entries that follow.
In plain terms, each number is the log10 of measured IC50 in nM.

The observed log10(IC50) for `COc1cc(NC(=O)c2[nH]cnc2C(=O)NCCN2CCCCC2)ccc1NC(=O)c1ccccc1Cl` when tested with TNKS2 (Homo sapiens, UniProt Q9H2K2) stands at 1.00

The observed log10(IC50) for CN1CCC(CNC(=O)c2nc[nH]c2C(=O)Nc2ccc(NC(=O)c3ccc(F)cc3Cl)cc2)C1 (stereo not shown) when tested with TNKS2 (Homo sapiens, UniProt Q9H2K2) stands at 0.90

The observed log10(IC50) for `NC(=O)c1nc[nH]c1C(=O)Nc1ccc(NC(=O)c2ccc(F)cc2Cl)cc1` when tested with TNKS2 (Homo sapiens, UniProt Q9H2K2) stands at 2.04

The observed log10(IC50) for `COc1cc(NC(=O)c2[nH]cnc2C(=O)NCCN2CCCCC2)ccc1NC(=O)c1ccc(F)cc1Cl` when tested with TNKS2 (Homo sapiens, UniProt Q9H2K2) stands at 1.30

The observed log10(IC50) for O=C(Nc1ccc(NC(=O)c2ocnc2C(=O)NCCN2CCCC(F)C2)cc1)c1ccc(F)cc1Cl (stereo not shown) when tested with TNKS2 (Homo sapiens, UniProt Q9H2K2) stands at 2.00

The observed log10(IC50) for O=C(Nc1ccc(NC(=O)c2nc[nH]c2C(=O)N[C@@H]2CCNC2)cc1)c1ccc(F)cc1Cl [Example 282, hydrochloride salt] when tested with TNKS2 (Homo sapiens, UniProt Q9H2K2) stands at 1.00

The observed log10(IC50) for `CN(C)CCNC(=O)c1ncoc1C(=O)Nc1ccc(NC(=O)c2ccc(F)cc2Cl)cc1` when tested with TNKS2 (Homo sapiens, UniProt Q9H2K2) stands at 2.11

The observed log10(IC50) for `CN1CCN(CCNC(=O)c2[nH]cnc2C(=O)Nc2ccc(NC(=O)c3ccc(F)cc3Cl)cc2)CC1` when tested with TNKS2 (Homo sapiens, UniProt Q9H2K2) stands at 0.30

###

Biological target: TNKS1 (Homo sapiens, UniProt O95271)
Sequence (O95271 whole entry): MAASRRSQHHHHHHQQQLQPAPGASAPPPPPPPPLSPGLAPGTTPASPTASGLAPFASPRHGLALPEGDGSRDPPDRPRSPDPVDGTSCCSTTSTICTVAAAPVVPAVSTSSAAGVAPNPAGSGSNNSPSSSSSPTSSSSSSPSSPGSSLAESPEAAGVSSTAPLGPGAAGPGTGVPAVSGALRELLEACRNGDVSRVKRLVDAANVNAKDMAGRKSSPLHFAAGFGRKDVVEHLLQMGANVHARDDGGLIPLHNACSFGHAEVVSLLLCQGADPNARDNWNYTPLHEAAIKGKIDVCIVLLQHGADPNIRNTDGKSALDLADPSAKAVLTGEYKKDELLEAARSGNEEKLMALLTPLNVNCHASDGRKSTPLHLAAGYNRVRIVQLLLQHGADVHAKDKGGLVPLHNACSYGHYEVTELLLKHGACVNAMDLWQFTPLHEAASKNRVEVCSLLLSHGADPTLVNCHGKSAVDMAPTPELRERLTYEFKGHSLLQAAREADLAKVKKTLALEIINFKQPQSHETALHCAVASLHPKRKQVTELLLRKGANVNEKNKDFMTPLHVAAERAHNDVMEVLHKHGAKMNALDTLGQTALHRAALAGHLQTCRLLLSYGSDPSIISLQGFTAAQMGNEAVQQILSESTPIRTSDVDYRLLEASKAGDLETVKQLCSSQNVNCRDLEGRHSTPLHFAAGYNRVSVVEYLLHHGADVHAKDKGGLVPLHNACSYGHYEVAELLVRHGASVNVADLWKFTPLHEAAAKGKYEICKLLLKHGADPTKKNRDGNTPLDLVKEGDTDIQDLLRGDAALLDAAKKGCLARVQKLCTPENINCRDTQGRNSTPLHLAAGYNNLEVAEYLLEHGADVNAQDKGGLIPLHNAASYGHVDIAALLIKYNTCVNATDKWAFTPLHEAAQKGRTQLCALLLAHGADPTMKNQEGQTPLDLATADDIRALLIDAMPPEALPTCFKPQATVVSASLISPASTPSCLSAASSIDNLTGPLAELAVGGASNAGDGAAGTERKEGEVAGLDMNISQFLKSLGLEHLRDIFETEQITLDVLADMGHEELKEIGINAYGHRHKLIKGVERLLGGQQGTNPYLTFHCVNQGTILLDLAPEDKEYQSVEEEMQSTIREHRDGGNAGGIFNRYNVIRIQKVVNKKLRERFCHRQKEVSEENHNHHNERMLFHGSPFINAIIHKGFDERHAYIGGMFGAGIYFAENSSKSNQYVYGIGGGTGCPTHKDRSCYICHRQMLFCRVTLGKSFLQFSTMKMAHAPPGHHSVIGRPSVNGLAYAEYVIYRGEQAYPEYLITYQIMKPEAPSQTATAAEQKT
Assay: Modified TNKS1 Assay 2 (auto-parsylation, [3H]-NAD+ SPA)
Format: biochemical
Settings: 6 nM TNKS1, 96 well
Provide the recorded pIC50 for the entries that follow.
Interpret pIC50 as the negative base-10 log of the concentration measured in mol/L.

The observed pIC50 for `CNC(=O)c1nc[nH]c1C(=O)Nc1ccc(NC(=O)c2ccc(S(C)(=O)=O)cc2Cl)cc1` when tested with TNKS1 (Homo sapiens, UniProt O95271) stands at 6.92

The observed pIC50 for `COC(=O)c1nc[nH]c1C(=O)Nc1ccc(NC(=O)c2ccc(F)cc2Cl)c(F)c1` when tested with TNKS1 (Homo sapiens, UniProt O95271) stands at 7.00

The observed pIC50 for `CNC(=O)c1ncoc1C(=O)Nc1ccc(NC(=O)c2ccc(F)cc2Cl)cc1` when tested with TNKS1 (Homo sapiens, UniProt O95271) stands at 6.82

The observed pIC50 for `CC(C)CNC(=O)c1[nH]cnc1C(=O)Nc1ccc(NC(=O)c2ccc(F)cc2Cl)cc1` when tested with TNKS1 (Homo sapiens, UniProt O95271) stands at 6.96

The observed pIC50 for `O=C(Nc1ccc(NC(=O)c2[nH]cnc2C(=O)NCCc2cccnc2)cc1)c1ccc(F)cc1Cl` when tested with TNKS1 (Homo sapiens, UniProt O95271) stands at 7.00

The observed pIC50 for `CC(C)N(CCNC(=O)c1nc[nH]c1C(=O)Nc1ccc(NC(=O)c2ccc(F)cc2Cl)cc1)C(C)C` when tested with TNKS1 (Homo sapiens, UniProt O95271) stands at 6.82

The observed pIC50 for `CNC(=O)c1nc[nH]c1C(=O)Nc1ccc(NC(=O)c2ccc(OCCN(C)C)cc2Cl)cc1` when tested with TNKS1 (Homo sapiens, UniProt O95271) stands at 7.10

The observed pIC50 for `CN1CCN(CC(C)(C)CNC(=O)c2nc[nH]c2C(=O)Nc2ccc(NC(=O)c3ccc(F)cc3Cl)cc2)CC1` when tested with TNKS1 (Homo sapiens, UniProt O95271) stands at 7.15

###

Provide the recorded IC50 for the entries that follow.
Biological target: TNKS1 (Homo sapiens)
Assay: Modified TNKS1 Assay 3 (BPS kit #80573, biotin-NAD+, 96 well)
Format: biochemical
Settings: human TNKS1, BPS kit #80573, 96 well

IC50 measured on `O=C(Nc1ccc(NC(=O)c2[nH]cnc2C(=O)NCCN2CCS(=O)(=O)CC2)cc1)c1ccc(F)cc1Cl` = 260 nM

IC50 measured on `CCNC(=O)c1[nH]cnc1C(=O)Nc1ccc(NC(=O)c2ccc(F)cc2Cl)cc1` = 260 nM

IC50 measured on `O=C(Nc1ccc(NC(=O)c2nc[nH]c2C(=O)N2CC3(COC3)C2)cc1)c1ccc(F)cc1Cl` = > 500 nM

IC50 measured on `O=C(Nc1ccc(NC(=O)c2[nH]cnc2C(=O)NCCC2CC2)cc1)c1cc(F)c(F)cc1Cl` = > 500 nM

IC50 measured on `CNC(=O)c1nc[nH]c1C(=O)Nc1ccc(NC(=O)c2ccc(OC)cc2Cl)cc1` = > 500 nM

IC50 measured on `NC(=O)c1nc[nH]c1C(=O)Nc1ccc(NC(=O)c2ccccc2Cl)cc1` = > 500 nM

IC50 measured on `CNC(=O)c1nc[nH]c1C(=O)Nc1ccc(NC(=O)c2c(C)cc(C)cc2C)cc1` = > 500 nM

IC50 measured on `CC(C)(N)CNC(=O)c1ncoc1C(=O)Nc1ccc(NC(=O)c2ccc(F)cc2Cl)cc1` = > 500 nM

IC50 measured on `O=C(Nc1ccc(NC(=O)c2[nH]cnc2C(=O)N2CC3(COC3)C2)cc1)c1cc(F)c(F)cc1Cl` = > 500 nM
